# Test system: HCC1937
# MEASUREMENT_NOTES: normalised response (% of control), CellTiter-Glo; higher = more viable cells (100 = DMSO, 0 = benzethonium chloride kill control)
# REPORTED_CONDITIONS: incubation time: 72 h
normalised response of 70% or higher: satisfied. Under 70%: not satisfied.

1) CC(C)(C#N)c1cc(Cn2cncn2)cc(C(C)(C)C#N)c1 [Anastrozole] (10000 nM) : satisfied
2) Cn1c(=O)n(-c2ccc(C(C)(C)C#N)cc2)c2c3cc(-c4cnc5ccccc5c4)ccc3ncc21 [Dactolisib] (1000 nM) : not satisfied
3) COc1ccccc1S(=O)(=O)Nc1ccc2c(c1)CN(C)C(=O)N2 [PFI-1] (10000 nM) : satisfied
4) CN(C)CCN1C(=O)c2cccc3cc(N)cc(c23)C1=O [Amonafide] (10000 nM) : not satisfied
5) CCCCCCCCc1ccc(CCC(N)(CO)CO)cc1 [Fingolimod] (10000 nM) : not satisfied
6) CN1CCN(CCOc2cc(OC3CCOCC3)c3c(Nc4c(Cl)ccc5c4OCO5)ncnc3c2)CC1 [Saracatinib] (10000 nM) : not satisfied
7) C/C(=C\c1csc(C)n1)[C@@H]1C[C@@H]2O[C@]2(C)CCC[C@H](C)[C@H](O)[C@@H](C)C(=O)C(C)(C)[C@@H](O)CC(=O)O1 [Patupilone] (1000 nM) : satisfied
8) Cc1ccc(NC(=O)c2ccc(CN3CCN(C)CC3)cc2)cc1Nc1nccc(-c2cccnc2)n1 [Imatinib] (10000 nM) : satisfied
9) CNNCc1ccc(C(=O)NC(C)C)cc1 [Procarbazine] (10000 nM) : satisfied
